Measured values drawn from patent US20250346579A1 for this set.

testDetails: Pharmacokinetic study in ICR mice
Assay type: in vivo
assayContext: male, mouse, supernatant of centrifuged blood, IV 1 mg/kg
propertyName: clearance
Give the value; after it, write the unit.

Looking up C[C@@H](COCCC(=O)N1CCN(c2ncc(C(F)(F)F)cn2)CC1)Nc1cn[nH]c(=O)c1C(F)(F)F [RBN-2397, reference compound] , I found its clearance recorded as 67 mL/min/kg

Looking up C[C@@H](CN1CC(C(=O)N2CCN(c3ncc(C(F)(F)F)cn3)CC2)C1)Nc1cn[nH]c(=O)c1C(F)(F)F , I found its clearance recorded as 29 mL/min/kg

---

testDetails: Pharmacokinetic study in SD rats
Assay type: in vivo
assayContext: male, rat, supernatant of centrifuged blood, IV 1 mg/kg
propertyName: Cmax (ng/mL)
Give your result in ng/mL as a bare value.

| molecule | measuredNumber |
| --- | --- |
| C[C@@H](CN1CC(C(=O)N2CCN(c3ncc(C(F)(F)F)cn3)CC2)C1)Nc1cn[nH]c(=O)c1C(F)(F)F [I-A-1] | 333 |

Looking up C[C@@H](COCCC(=O)N1CCN(c2ncc(C(F)(F)F)cn2)CC1)Nc1cn[nH]c(=O)c1C(F)(F)F [RBN-2397, reference compound] , I found its Cmax recorded as 836

---

Recorded half-life values for a group of molecules are listed next.
testDetails: Pharmacokinetic study in SD rats
Assay type: in vivo
assayContext: male, rat, supernatant of centrifuged blood, IV 1 mg/kg
Give your result in h as a bare value.

| molecule | measuredNumber |
| --- | --- |
| C[C@@H](CN1CC(C(=O)N2CCN(c3ncc(C(F)(F)F)cn3)CC2)C1)Nc1cn[nH]c(=O)c1C(F)(F)F | 1.72 |

Consider the record given below.
Looking up C[C@@H](COCCC(=O)N1CCN(c2ncc(C(F)(F)F)cn2)CC1)Nc1cn[nH]c(=O)c1C(F)(F)F [RBN-2397, reference compound] , I found its half-life recorded as 0.28

---

Recorded AUC values for a group of compounds are listed next.
testDetails: Pharmacokinetic study in SD rats
Type: in vivo
assayContext: male, rat, supernatant of centrifuged blood, PO 10 mg/kg
Give your result in ng·h/mL as a bare value.

| compound | measuredNumber |
| --- | --- |
| C[C@@H](CN1CC(C(=O)N2CCN(c3ncc(C(F)(F)F)cn3)CC2)C1)Nc1cn[nH]c(=O)c1C(F)(F)F [I-A-1] | 2560 |

Consider the record given below.
Looking up C[C@@H](COCCC(=O)N1CCN(c2ncc(C(F)(F)F)cn2)CC1)Nc1cn[nH]c(=O)c1C(F)(F)F [RBN-2397, reference compound] , I found its AUC recorded as 415

---

testDetails: Pharmacokinetic study in SD rats
Format: in vivo
assayContext: male, rat, supernatant of centrifuged blood, PO 10 mg/kg
Recorded Cmax values for a group of compounds are listed next.
Give your result in ng/mL as a bare value.

| compound | measuredNumber |
| --- | --- |
| C[C@@H](COCCC(=O)N1CCN(c2ncc(C(F)(F)F)cn2)CC1)Nc1cn[nH]c(=O)c1C(F)(F)F [RBN-2397, reference compound] | 295 |

Looking up C[C@@H](CN1CC(C(=O)N2CCN(c3ncc(C(F)(F)F)cn3)CC2)C1)Nc1cn[nH]c(=O)c1C(F)(F)F [I-A-1] , I found its Cmax recorded as 564
